B1: Osa-1-4 twister ribozyme (parent)
chain: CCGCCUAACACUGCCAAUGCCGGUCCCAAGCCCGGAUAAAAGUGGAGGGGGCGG

variants of: B1; experiment: self-cleavage, relative activity (ratio to wild type); higher = more cleavage; co-transcriptional
Parameter: self-cleavage. Scope: all listed entries.
Number, no unit, nothing else.

CCGCCUAACACUGCCAAUGCCGGUCCCUAGCCCGGAUAAAAGUGGAUGGGGCGG | 0.1

Lab note: `CCGCCUAACACUGCCAAUGCCGGUCCCAGGCACGGAUAAAAGUGGAGGGGGCGG` gave self-cleavage of 0.04

Lab note: `CCGCCUAACACUGCCAAUGCCGGUCACAAGCCCGGAUAAAAGUGGAGGGGGCGC` gave self-cleavage of 0.05

Lab note: `CCGCCUAACACUACCAAUGCCGGUCCCAAGCCCAGAUAAAAGUGGAGGGGGCGG` gave self-cleavage of 0.09

Lab note: `CCGCCUAACACUGCCAAUGCCGGUACCAAGCCCGGAUAAAAGUAGAGGGGGCGG` gave self-cleavage of 0.05

Lab note: `CCGCCUAACACUGCCAAUCCCGGUCCGAAGCCCGGAUAAAAGUGGAGGGGGCGG` gave self-cleavage of 0.03

Lab note: `CCGCCUAACACUGCCAAUGCCGGUCCCAAGCCAGGAUAAAAGUGGUGGGGGCGG` gave self-cleavage of 0.05

Lab note: `CCGCCUAACACUGCCAAUGCCGGUCCCAAGCCGGGAUAUAAGUGGAGGGGGCGG` gave self-cleavage of 0.07

Lab note: `CCGCCUAACACUGCCAAUGCCGGUCCCAAGCACGGAUAAAAGUGGAGGGGACGG` gave self-cleavage of 0.07

Lab note: `CCGCCUAGCACUGCCAAUGCCGGUCCCAAGCCCGGAUAAAAGUGGAGGGGGUGG` gave self-cleavage of 0.73
